- system-under-test: ER (Homo sapiens, UniProt P03372)
- Construct: host or cells: T47D and MCF7 human breast cancer cells
- Sequence (P03372 1-595): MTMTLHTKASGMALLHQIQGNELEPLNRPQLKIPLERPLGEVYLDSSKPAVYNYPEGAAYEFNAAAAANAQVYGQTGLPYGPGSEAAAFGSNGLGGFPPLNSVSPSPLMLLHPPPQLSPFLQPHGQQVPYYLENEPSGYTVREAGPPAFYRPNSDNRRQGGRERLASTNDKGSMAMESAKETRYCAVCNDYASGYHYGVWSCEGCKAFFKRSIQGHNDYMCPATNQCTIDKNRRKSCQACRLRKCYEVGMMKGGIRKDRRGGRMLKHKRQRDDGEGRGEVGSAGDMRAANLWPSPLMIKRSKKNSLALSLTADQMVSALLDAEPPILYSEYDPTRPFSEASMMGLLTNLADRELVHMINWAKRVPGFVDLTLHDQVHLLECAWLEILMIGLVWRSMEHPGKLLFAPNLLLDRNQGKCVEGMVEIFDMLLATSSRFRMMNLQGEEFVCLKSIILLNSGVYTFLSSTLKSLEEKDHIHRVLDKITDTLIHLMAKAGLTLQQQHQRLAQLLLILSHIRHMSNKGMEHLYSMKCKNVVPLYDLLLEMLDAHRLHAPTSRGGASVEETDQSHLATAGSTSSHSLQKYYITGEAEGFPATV
- test-method-notes: ER degradation activity, in-cell western blot analysis in T47D cells
- Type: cell-based
- particulars: compounds 16 hours, Table A does not say whether T47D or MCF7, read-out: Potency (DC50)
For each entry below, report its DC50 value.

Task: Recorded DC50 for C[C@@H]1Cc2c([nH]c3ccccc23)[C@@H](c2cnc(N3CCC4(CC3)CC(CN3Cc5cc6c(cc5C3)C(=O)N([C@H]3CCC(=O)NC3=O)C6=O)C4)nc2)N1CC(F)(F)CO , please?
Output: > 100 nM

Task: Also, COc1cc([C@H]2CC[C@H](C(=O)N3CCC(N4Cc5cc6c(cc5C4)C(=O)N(C4CCC(=O)NC4=O)C6=O)CC3)CC2)ncc1[C@@H]1c2[nH]c3ccccc3c2C[C@@H](C)N1CC(F)F (stereo partly drawn) please.
Output: > 100 nM

Task: Request: O=C1CCC(N2C(=O)c3cc4c(cc3C2=O)CN(CC(=O)N2CCC3(CC2)CCN(c2ccc([C@@H]5c6ccc7[nH]ncc7c6CC[C@@H]5c5ccccc5)cc2)CC3)C4)C(=O)N1 (stereo partly drawn)
Output: 10 to 100 nM

Task: Same read-out for COc1cc([C@H]2CC[C@H](C(=O)N3CCC(N4Cc5cc6c(cc5C4)C(=O)N(C4CCC(=O)NC4=O)C6=O)CC3)CC2)ccc1[C@@H]1c2[nH]c3ccccc3c2C[C@@H](C)N1CC(F)F (stereo partly drawn) ?
Output: 10 to 100 nM

Task: Similarly, C[C@@H]1Cc2c([nH]c3ccccc23)[C@@H](c2ccc(C3=CCC4(CC3)CCN(C(=O)CN3Cc5cc6c(cc5C3)C(=O)N(C3CCC(=O)NC3=O)C6=O)CC4)cc2F)N1CC(F)F (stereo partly drawn) ?
Output: > 100 nM

Task: Lookup COc1c2c(cc3c1CN(C1CCC(=O)NC1=O)C3=O)CN(CC(=O)N1CC3(CCN(c4cc(F)c([C@@H]5c6ccc7[nH]ncc7c6C[C@@H](C)N5CC(F)F)c(F)c4)CC3)C1)C2 (stereo partly drawn)
Output: < 10 nM

Task: Another compound: O=C1CCC(N2C(=O)c3cc4c(cc3C2=O)CN(C2CCN(C(=O)[C@H]3C[C@@H](Oc5ccc([C@@H]6c7ccc(O)cc7CC[C@@H]6c6ccccc6)cc5)C3)CC2)C4)C(=O)N1 (mixture of isomers)
Output: 10 to 100 nM

Task: Next: C[C@@H]1Cc2cc(O)ccc2[C@H](c2ccc(C3=CCC4(CC3)CCN(C(=O)CN3Cc5cc6c(cc5C3)C(=O)N(C3CCC(=O)NC3=O)C6=O)CC4)cc2)N1CC(F)F (stereo partly drawn)
Output: > 100 nM

Task: Same thing, different compound: O=C1CCC(N2Cc3cc4c(cc3C2=O)C(=O)N(CC2CN(CC3CCN(c5ccc([C@@H]6c7ccc(O)cc7CC[C@@H]6c6ccccc6)cc5)CC3)C2)C4)C(=O)N1 (stereo partly drawn)
Output: > 100 nM
